Tested on: 769-P
test summary: minimum viability across doses, drug alone, relative to DMSO (fraction); higher = less growth inhibition
test settings: treatment: drug alone; 5 days
recorded endpoint: minimum viability across doses
Give a plain numeric answer without units written out.

Query string: Can you look up the measured minimum viability across doses of "CNC(=O)c1ccccc1Sc1ccc2c(/C=C/c3ccccn3)n[nH]c2c1" for me?
Result string: 0.436

Query string: Proceed to "CCn1c(N)c(C(=O)NC)c(=O)c2ccc(C#C[C@@](C)(O)COC)nc21"
Result string: 1.02

Query string: Proceed to "CC[C@H](Nc1ncnc2[nH]cnc12)c1nc2cccc(F)c2c(=O)n1-c1ccccc1"
Result string: 0.786

Query string: Proceed to "NC(=O)Nc1sc(-c2ccc(F)cc2)cc1C(N)=O"
Result string: 0.355
